system: NCI-H522 lung; assay: NCI-60 one-dose screen, 48 h; details: 10 µM unless noted
About 83,000 compounds went through this panel and 20% of them were active in at least one assay; those are over-represented in the sample as a whole. Activity calls are given as the source filed them. How the source made its calls: active means growth percent below 10; inactive means the rest.
Outcome codes: 1 for active, -1 for inactive

{"Molecule": "COCC[C@H]1CCC/C=C/[C@@H]2C[C@H](O)C[C@H]2[C@H](O)/C=C/C(=O)O1", "Label": 1}
{"Molecule": "COc1ccc2cc(-c3cnc4nonc4n3)ccc2c1", "Label": 1}
{"Molecule": "Cc1nc2sc(C(=O)Nc3cccc(Cl)c3)c(N)c2cc1C(O)c1ccccc1 (stereo not given)", "Label": 1}
{"Molecule": "O=C(/C=C/c1ccc(Br)cc1)c1ccc(-n2cc(CN3CCN(c4cc5c(cc4F)c(=O)c(C(=O)O)cn5C4CC4)CC3)nn2)cc1", "Label": -1}
{"Molecule": "COc1ccc(C(O)c2cc3c(N)c(C(=O)Nc4cccc(Cl)c4)sc3nc2C)cc1 (stereo not given)", "Label": -1}

---

The entries below are paired with their reported growth.
test system: T-47D breast; test: NCI-60 one-dose screen, 48 h (100 = growth as untreated, 0 = no growth, -100 = all killed); details: 10 µM unless noted
The panel holds about 83,000 compounds, 20% with a hit somewhere; the sample as a whole holds those more often. The source made the active and inactive calls. Rule for the calls: active = growth percent below 10; inactive = the rest.
Measurement kind: growth

{"Compound": "CCOC(=O)Nc1nc2ccc(SCC(C)C)cc2s1", "Measurement kind": "growth", "Measured": "24.3% (inactive)"}
{"Compound": "C#CC#CC#CC#CC#CC#CC#CC#CCC1OCC(COC(=O)O[C@@H](C(=O)O[C@H]2C[C@@]3(O)[C@@H](OC(=O)c4ccccc4)[C@@H]4[C@]5(OC(C)=O)CO[C@@H]5C[C@H](O)[C@@]4(C)C(=O)[C@H](OC(C)=O)C(=C2C)C3(C)C)[C@@H](NC(=O)c2ccccc2)c2ccccc2)O1 (some centres undefined)", "Measurement kind": "growth", "Measured": "36.6% (inactive)"}
{"Compound": "O=C(c1ccc(Cl)cc1Cl)N1c2ccccc2Sc2ccccc21", "Measurement kind": "growth", "Measured": "67.3% (inactive)"}
{"Compound": "C#CCn1cnc2c(Nc3cccc(NC(=O)CCl)c3)ncnc21", "Measurement kind": "growth", "Measured": "34.7% (inactive)"}

---

tested on: COLO 205 colon; assay: NCI-60 one-dose screen, 48 h; conditions: 10 µM unless noted
About 83,000 compounds went through this panel and 20% of them were active in at least one assay; those are over-represented in the sample as a whole. Calls of active or inactive are those of the source. How the source made its calls: active means growth percent below 10; inactive means the rest.
Possible outcomes: active, inactive

{"Compound": "CC12CCC(/C(=C/NNc3ccc([N+](=O)[O-])cc3[N+](=O)[O-])C1=O)C2(C)C (stereo not given)", "Tested on": "COLO 205 colon", "Label": "inactive"}
{"Compound": "COC(c1ccc2ccccc2c1)C(C)C(F)F (stereo not given)", "Tested on": "COLO 205 colon", "Label": "inactive"}
{"Compound": "COc1ccc2[nH]cc(-c3nc(-c4cn(C)c5ccncc45)cs3)c2c1", "Tested on": "COLO 205 colon", "Label": "inactive"}
{"Compound": "C#CCOc1cccc(-c2ncc3cc(NC(=O)CCl)ccc3n2)c1", "Tested on": "COLO 205 colon", "Label": "active"}
{"Compound": "C=C(c1ccc(C(=O)O)cn1)c1cc2c(cc1C)C(C)(C)CCC2(C)C", "Tested on": "COLO 205 colon", "Label": "inactive"}
{"Compound": "COC(=O)c1c2c(c(C)[n+]([O-])c1C)C(=O)C=CC2=O", "Tested on": "COLO 205 colon", "Label": "active"}
{"Compound": "CCOC(=O)c1c(C)nc2c(c1N)CC(=O)N2Cc1cc(OC)c(OC)c(OC)c1", "Tested on": "COLO 205 colon", "Label": "inactive"}
{"Compound": "Cc1cc(N2CCCCC2)nc(N2CCN(CC(=O)Nc3ccc4c(ccn4Cc4ccccc4)c3)CC2)n1", "Tested on": "COLO 205 colon", "Label": "inactive"}
{"Compound": "Cc1cc(C)c(-c2c(O)c(Br)c(-c3c(C)cc(C)c(Br)c3C)c(O)c2Br)c(C)c1Br", "Tested on": "COLO 205 colon", "Label": "active"}
{"Compound": "O=C(CCCCCCN1CC(=O)N2[C@@H](c3ccc(Cl)cc3)c3[nH]c4ccccc4c3C[C@H]2C1=O)NO", "Tested on": "COLO 205 colon", "Label": "inactive"}
{"Compound": "O=C(Cn1nnc2ccccc21)N/N=C/c1ccccc1F", "Tested on": "COLO 205 colon", "Label": "inactive"}
{"Compound": "Cc1cccc(N2CCN(C(=S)c3ccc4c(c3)OCO4)CC2)c1", "Tested on": "COLO 205 colon", "Label": "active"}
{"Compound": "O=[N+]([O-])/C(=C\\c1ccco1)c1ccccc1Cl", "Tested on": "COLO 205 colon", "Label": "inactive"}
{"Compound": "Fc1ccc(COc2ccc(Nc3ncnc4sc5c(c34)CCCC5)cc2)cc1", "Tested on": "COLO 205 colon", "Label": "inactive"}
{"Compound": "N=c1sc(Cc2cc(Cl)ccc2Cl)cn1CC(=O)c1ccccc1", "Tested on": "COLO 205 colon", "Label": "inactive"}
{"Compound": "O=C(Nc1nc(C(=O)N2CCN(C(c3ccccc3)c3ccccc3)CC2)cs1)c1ccc(NC2CCCCC2)c([N+](=O)[O-])c1", "Tested on": "COLO 205 colon", "Label": "inactive"}
{"Compound": "COc1ccc(C/C(C)=C(/c2ccc(OCCN3CCCCCC3)cc2)c2ccc(OC(=O)NCc3ccccc3)cc2)cc1", "Tested on": "COLO 205 colon", "Label": "inactive"}
{"Compound": "O=C1/C=C/[C@@H](O)[C@@H]2C[C@@H](O)C[C@H]2/C=C/CCC[C@H](CCOCc2ccccc2)O1", "Tested on": "COLO 205 colon", "Label": "active"}
{"Compound": "NNC(=S)N/N=C/c1ccccn1", "Tested on": "COLO 205 colon", "Label": "inactive"}
{"Compound": "O=C(Cn1nnc2ccccc21)Nc1ccc(-c2nc3ccccc3s2)cc1", "Tested on": "COLO 205 colon", "Label": "inactive"}
